Data provenance is ChEMBL document CHEMBL3137386.

# Test System: Cytochrome P450 3A4 (Homo sapiens, UniProt P08684)
# Sequence (P08684 whole entry): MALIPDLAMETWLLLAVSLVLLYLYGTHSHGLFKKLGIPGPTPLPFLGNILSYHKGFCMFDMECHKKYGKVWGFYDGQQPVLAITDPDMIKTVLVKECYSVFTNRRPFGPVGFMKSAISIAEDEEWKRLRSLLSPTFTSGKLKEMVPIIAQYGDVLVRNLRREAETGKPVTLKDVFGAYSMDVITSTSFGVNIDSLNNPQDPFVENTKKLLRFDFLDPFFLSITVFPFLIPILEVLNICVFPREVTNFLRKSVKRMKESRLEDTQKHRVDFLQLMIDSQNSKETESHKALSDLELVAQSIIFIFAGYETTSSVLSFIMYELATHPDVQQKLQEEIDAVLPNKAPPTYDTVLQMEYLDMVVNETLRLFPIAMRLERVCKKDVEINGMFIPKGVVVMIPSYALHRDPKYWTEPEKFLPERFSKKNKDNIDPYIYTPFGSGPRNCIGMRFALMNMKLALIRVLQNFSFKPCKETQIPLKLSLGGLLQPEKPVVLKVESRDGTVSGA
# Method: DNDI: CYP Inhibition
# Format: ADME
Quantity Name: IC50
A complete answer gives the number followed by the unit.

Give IC50 for the following compound: O=C(C(c1ccc(Cl)cc1)c1cccnc1)N1CCN(c2ccc(C(F)(F)F)cc2)CC1 (stereo unspecified) 1200 nM

====

I'd appreciate it if you could supply pIC50 values for the items below.
# Test System: Cytochrome P450 3A4 (Homo sapiens)
# Method: DNDI: CYP Inhibition
# Type: ADME
pIC50: −log10 of the molar value.

CS(=O)(=O)c1ccc(N2CCN(C(=O)C(c3ccc(C#N)cc3)c3cccnc3)CC2)cc1 (centres undefined)
< 4.70
O=C(C(c1ccc(Cl)cc1)c1cccnc1)N1CCN(c2ccc(C(F)(F)F)cn2)CC1 (centres undefined)
< 4.70

Would you mind listing pIC50 for each of the following compounds?
1. O=C(C(c1ccc(Cl)cc1)c1cccnc1)N1CCN(Cc2ccccc2C(F)(F)F)CC1 (centres undefined)
2. O=C(C(c1ccc(Cl)cc1)c1cncnc1)N1CCN(c2ccc(C(F)(F)F)nc2)CC1 (centres undefined)
3. O=C(C(c1ccc(Cl)cc1)c1cncnc1)N1CCN(c2ccc(C(F)(F)F)cn2)CC1 (centres undefined)
4. CS(=O)(=O)c1ccc(N2CCN(C(=O)C(c3ccc(Cl)cc3)c3cncnc3)CC2)cc1 (centres undefined)
5. CS(=O)(=O)c1ccc(N2CCN(C(=O)C(c3ccc(Cl)cc3)c3cccnc3)CC2)cc1 (centres undefined)
6. N#Cc1ccc(C(C(=O)N2CCN(c3ccc(C(F)(F)F)nc3)CC2)c2cccnc2)cc1 (centres undefined)
7. N#Cc1ccc(C(C(=O)N2CCN(c3ccc(C(F)(F)F)cc3)CC2)c2cccnc2)cc1 (centres undefined)

4.82
< 4.70
4.74
< 4.70
4.72
< 4.70
< 4.70

====

# Method: DNDI: Solubility in phosphate buffer at pH 6.5 determined by nephelometry
# Format: physicochemical
Quantity Name: solubility kinetic (µg/mL)
Give bare numbers, in µg/mL.

CS(=O)(=O)c1ccc(N2CCN(C(=O)C(c3ccc(Cl)cc3)c3cncnc3)CC2)cc1 (stereo not given)
6.3
O=C(C(c1ccc(Cl)cc1)c1cncnc1)N1CCN(c2ccc(C(F)(F)F)nc2)CC1 (stereo not given)
12.5
O=C(C(c1ccc(Cl)cc1)c1cncnc1)N1CCN(c2ccc(C(F)(F)F)cc2)CC1 (stereo not given)
3.1
O=C(C(c1ccc(Cl)cc1)c1cncnc1)N1CCN(c2ccc(C(F)(F)F)cn2)CC1 (stereo not given)
6.3

Report measured solubility kinetic; entry is N#Cc1ccc(C(C(=O)N2CCN(c3ccc(C(F)(F)F)nc3)CC2)c2cccnc2)cc1 (stereo not given) 12.5

====

# Method: DNDI: Protein binding in human liver microsomes
# Type: ADME
# Particulars: read-out: % bound (converted)
Quantity Name: fraction unbound
Numbers only.

Identify measured fraction unbound associated with O=C(C(c1ccc(Cl)cc1)c1cccnc1)N1CCN(c2ccc(C(F)(F)F)cc2)CC1 (stereo unspecified) 0.023

====

I'd appreciate it if you could supply pIC50 values for the items below.
# Test system: L6
# Method: DNDI: Cytotoxicity against L-6 rat myoblasts from skeletal muscle
# Assay type: toxicity, cell-based, Muscle tissue
# Particulars: l6
Give bare numbers, as −log10 of the molar value.

N#Cc1ccc(C(C(=O)N2CCN(c3ccc(C(F)(F)F)cn3)CC2)c2cccnc2)cc1 (stereo not given)
4.10
O=C(C(c1ccc(Cl)cc1)c1cccnc1)N1CCN(c2ccc(C(F)(F)F)cn2)CC1 (stereo not given)
4.23
N#Cc1ccc(C(C(=O)N2CCN(c3ccc(C(F)(F)F)cc3)CC2)c2cccnc2)cc1 (stereo not given)
4.26
CS(=O)(=O)c1ccc(N2CCN(C(=O)C(c3ccc(Cl)cc3)c3cccnc3)CC2)cc1 (stereo not given)
4.21

Here is the next item to consider.
Report pIC50, nothing else, for this compound: O=C(C(c1ccc(Cl)cc1)c1cccnc1)N1CCN(c2ccc(C(F)(F)F)cc2)CC1 (stereo not given) 4.37
